- Read-out: ABC Transporter (ABCC2), ABCC2 (gene 1244)
- test.name: LTEA_HepaRG_ABCC2: Life Technologies and Expression Analysis (LTEA) Assay for ABC Transporter (ABCC2) using HepaRG (AID 2283464)
- condition.label: mRNA level, 48 h; actives raise or lower the signal
- Procedure: LTEA_HepaRG is a cell based, multiplexed-readout assay that uses HepaRG, a human liver cell line, with measurements taken at 48 hours after chemical dosing on a 96-well plate.LTEA_HepaRG_ABCC2 is one of 102 assay component(s) measured in the LTEA HepaRG cell culture assay. It is a marker of Steatosis/NR mediated transport.Data from the assay component LTEA_HepaRG_ABCC2 was analyzed into 1 endpoint. […]
Activity calls are given as the source filed them. How the source made its calls: active means hit-call score of the fitted dose curve at least 0.9, where 1 is the maximum; inactive means score below 0.9.
// allowed return values: TRUE (active), FALSE (inactive)

Observe how each entry below is paired with its result.
compound="CCC(=NOC/C=C/Cl)C1=C(O)CC(C2CCOCC2)CC1=O (centres undefined)" group=FALSE
compound=O=C(O)c1cc(Oc2ccc(C(F)(F)F)cc2Cl)ccc1[N+](=O)[O-] group=TRUE
compound="COP(=O)(NC(C)=O)SC (centres undefined)" group=FALSE
compound=CSC1=N[C@@](C)(c2ccccc2)C(=O)N1Nc1ccccc1 group=TRUE
compound=CN(C)NC(=O)CCC(=O)O group=FALSE

Lab log entry: "COc1cccc(C(=O)NN(C(=O)c2cc(C)cc(C)c2)C(C)(C)C)c1C" — outcome as called in the assay?
TRUE

Which outcome did this test record for the compound "Nc1c(Cl)cc([N+](=O)[O-])cc1Cl" ?
TRUE

# outcome recorded in this test, key = CCc1cccc(C)c1N(C(=O)CCl)C(C)COC (centres undefined)
FALSE

Outcome logged for "CCCSP(=O)(OCC)SCCC" in this assay:
TRUE

Assay outcome for "C#CC(C)(C)NC(=O)c1cc(Cl)cc(Cl)c1" : what was it?
TRUE

###

- test.name: ATG_PXRE_CIS: Attagene CIS-FACTORIAL HepG2 Assay for human Pregnane X Receptor Element (PXRE) (AID 2282957)
- condition.label: HepG2 Attagene CIS-FACTORIAL PXRE reporter, mRNA; actives raise or lower the signal
Calls of active or inactive are those of the source. The calls were made as follows: active = hit-call score of the fitted dose curve at least 0.9, where 1 is the maximum; inactive = score below 0.9.
// classify into active, inactive

compound=CNc1cnn(-c2cccc(C(F)(F)F)c2)c(=O)c1Cl group=active
compound=CC1(C(=O)Nc2ccc(O)c(Cl)c2Cl)CCCCC1 group=active
compound="COP(=O)(OC)OC(Br)C(Cl)(Cl)Br (configuration not stated)" group=inactive
compound=CCCOc1nn(C(=O)NS(=O)(=O)c2ccccc2C(=O)OC)c(=O)n1C group=active
compound="CC(C1CC1)C(O)(Cn1cncn1)c1ccc(Cl)cc1 (configuration not stated)" group=active

So what was the verdict on "CCC(=O)Nc1ccc(Cl)c(Cl)c1" in this test?
active

Each compound tested received a call. Report the one for "CSC1=N[C@@](C)(c2ccccc2)C(=O)N1Nc1ccccc1" .
active

For "CCCOCC(=Nc1ccc(Cl)cc1C(F)(F)F)n1ccnc1" , what call appears in the results of this test?
active

Any idea what this test logged for CCc1cnc(C2=NC(C)(C(C)C)C(=O)N2)c(C(=O)O)c1 (configuration not stated) ?
inactive

Check the results log: what was the call for "Cc1cc(C2CC2)nc(Nc2ccccc2)n1" ?
active

# lookup: test call for "O=C(O)c1cc(Oc2ccc(C(F)(F)F)cc2Cl)ccc1[N+](=O)[O-]"
active

Dear colleague, could you share the recorded outcome for COP(=O)(NC(C)=O)SC (configuration not stated) when you have a moment?
active
